Post-emergence action against MATIN: recorded values
# Test system: MATIN
# protocol text: Post-emergence herbicidal action
# Assay type: in vivo, Matricaria inodora
# experimental parameters: 20 g/ha, assessed after about 3 weeks
measured property: Post-emergence action against MATIN (%)

[[record]]
compound = "Cc1nnc(NC(=O)c2ccc(C(F)(F)F)c([S+](C)[O-])c2Cl)o1 (stereo in doubt)"
measured_property = "Post-emergence action against MATIN"
observed_measurement = 90

[[record]]
compound = "C[S+]([O-])c1c(C(F)(F)F)ccc(C(=O)Nc2nnco2)c1Cl (stereo in doubt)"
measured_property = "Post-emergence action against MATIN"
observed_measurement = 90

[[record]]
compound = "Cc1nnc(NC(=O)c2ccc(C(F)(F)F)c([S+]([O-])C3CC3)c2Cl)o1 (stereo in doubt)"
measured_property = "Post-emergence action against MATIN"
observed_measurement = 80

[[record]]
compound = "C[S+]([O-])c1c(C(F)F)ccc(C(=O)Nc2nnco2)c1Cl (stereo in doubt)"
measured_property = "Post-emergence action against MATIN"
observed_measurement = 90

[[record]]
compound = "Cc1c(C(=O)Nc2nnco2)ccc(C(F)(F)F)c1[S+](C)[O-] (stereo in doubt)"
measured_property = "Post-emergence action against MATIN"
observed_measurement = 80


----------
# System: SETVI
# protocol text: Post-emergence herbicidal action
# Type: in vivo, Setaria viridis
# experimental parameters: 5 g a.i./ha, comparative experiment
measured property: Herbicidal action against SETVI (%)

[[record]]
compound = "Cc1nnc(NC(=O)c2ccc(C(F)F)c([S+](C)[O-])c2Cl)o1 (racemic) [7-48 from WO2018202535, reference compound]"
measurement_target = "SETVI"
observed_measurement = 80

[[record]]
compound = "Cc1nnc(NC(=O)c2ccc(C(F)(F)F)c([S+](C)[O-])c2Cl)o1 (stereo in doubt) [Example I-5]"
measurement_target = "SETVI"
observed_measurement = 100

[[record]]
compound = "Cc1nnc(NC(=O)c2ccc(C(F)(F)F)c([S+](C)[O-])c2Cl)o1 (racemic) [2-360, from WO2012126932, reference compound]"
measurement_target = "SETVI"
observed_measurement = 80

[[record]]
compound = "Cc1nnc(NC(=O)c2ccc(C(F)F)c([S+](C)[O-])c2Cl)o1 (stereo in doubt) [Example I-6]"
measurement_target = "SETVI"
observed_measurement = 100


----------
# System: GLXMA
# protocol text: Pre-emergence damage to crop plants
# Assay type: in vivo, Glycine max
# experimental parameters: 80 g a.i./ha, comparative experiment
measured property: Damage to GLXMA

[[record]]
compound = "Cc1nnc(NC(=O)c2ccc(C(F)(F)F)c([S+]([O-])C3CC3)c2Cl)o1 (racemic) [Racemate known from WO2012126932, reference compound]"
observed_measurement = "100%"

[[record]]
compound = "C[S+]([O-])c1c(C(F)F)ccc(C(=O)Nc2nnco2)c1Cl (racemic) [Racemate, known from WO2018202535, reference compound]"
observed_measurement = "80%"

[[record]]
compound = "Cc1c(C(=O)Nc2nnco2)ccc(C(F)(F)F)c1[S+](C)[O-] (stereo in doubt) [Example I-3]"
observed_measurement = "50%"


----------
# Tested on: SETVI
# protocol text: Post-emergence herbicidal action
# Format: in vivo, Setaria viridis
# experimental parameters: 5 g/ha, assessed after about 3 weeks
Post-emergence action against SETVI: recorded values
measured property: Post-emergence action against SETVI

[[record]]
compound = "Cc1nnc(NC(=O)c2ccc(C(F)(F)F)c([S+]([O-])C3CC3)c2Cl)o1 (stereo in doubt)"
observed_measurement = "100%"

[[record]]
compound = "Cc1nnc(NC(=O)c2ccc(C(F)(F)F)c([S+](C)[O-])c2Cl)o1 (stereo in doubt)"
observed_measurement = "80%"

[[record]]
compound = "C[S+]([O-])c1c(C(F)(F)F)ccc(C(=O)Nc2nnco2)c1Cl (stereo in doubt)"
observed_measurement = "80%"

[[record]]
compound = "C[S+]([O-])c1c(C(F)F)ccc(C(=O)Nc2nnco2)c1Cl (stereo in doubt)"
observed_measurement = "90%"

[[record]]
compound = "Cc1nnc(NC(=O)c2ccc(C(F)F)c([S+](C)[O-])c2Cl)o1 (stereo in doubt)"
observed_measurement = "100%"


----------
Pre-emergence action against VIOTR: recorded values
# System: VIOTR
# protocol text: Pre-emergence herbicidal action
# Type: in vivo, Viola tricolor
# experimental parameters: 20 g/ha, scored after 3 weeks
measured property: Pre-emergence action against VIOTR

[[record]]
molecule = "Cc1nnc(NC(=O)c2ccc(C(F)F)c([S+](C)[O-])c2Cl)o1 (stereo in doubt)"
observed_measurement = "100%"

[[record]]
molecule = "C[S+]([O-])c1c(C(F)F)ccc(C(=O)Nc2nnco2)c1Cl (stereo in doubt)"
observed_measurement = "100%"

[[record]]
molecule = "C[S+]([O-])c1c(C(F)(F)F)ccc(C(=O)Nc2nnco2)c1Cl (stereo in doubt)"
observed_measurement = "100%"

[[record]]
molecule = "Cc1nnc(NC(=O)c2ccc(C(F)(F)F)c([S+]([O-])C3CC3)c2Cl)o1 (stereo in doubt)"
observed_measurement = "100%"

[[record]]
molecule = "Cc1c(C(=O)Nc2nnco2)ccc(C(F)(F)F)c1[S+](C)[O-] (stereo in doubt)"
observed_measurement = "90%"


----------
# Test system: TRZAS
# protocol text: Pre-emergence damage to crop plants
# Format: in vivo, Triticum aestiva
# experimental parameters: 20 g a.i./ha, comparative experiment
measured property: Damage to TRZAS (%)

[[record]]
compound = "C[S+]([O-])c1c(C(F)F)ccc(C(=O)Nc2nnco2)c1Cl (stereo in doubt) [Example I-2]"
measurement_target = "TRZAS"
units_symbol = "%"
observed_measurement = 20

[[record]]
compound = "C[S+]([O-])c1c(C(F)F)ccc(C(=O)Nc2nnco2)c1Cl (racemic) [Racemate, known from WO2018202535, reference compound]"
measurement_target = "TRZAS"
units_symbol = "%"
observed_measurement = 70

[[record]]
compound = "Cc1c(C(=O)Nc2nnco2)ccc(C(F)(F)F)c1[S+](C)[O-] (racemic) [1-144 from WO2012126932, reference compound]"
measurement_target = "TRZAS"
units_symbol = "%"
observed_measurement = 50

[[record]]
compound = "Cc1c(C(=O)Nc2nnco2)ccc(C(F)(F)F)c1[S+](C)[O-] (stereo in doubt) [Example I-3]"
measurement_target = "TRZAS"
units_symbol = "%"
observed_measurement = 0


----------
# Test system: BRSNW
# protocol text: Pre-emergence damage to crop plants
# Type: in vivo, Brassica napus
# experimental parameters: 20 g a.i./ha, comparative experiment
measured property: Damage to BRSNW (%)

[[record]]
compound = "Cc1nnc(NC(=O)c2ccc(C(F)F)c([S+](C)[O-])c2Cl)o1 (stereo in doubt) [Example I-6]"
units_symbol = "%"
observed_measurement = 40

[[record]]
compound = "Cc1nnc(NC(=O)c2ccc(C(F)F)c([S+](C)[O-])c2Cl)o1 (racemic) [7-48 from WO2018202535, reference compound]"
units_symbol = "%"
observed_measurement = 80

[[record]]
compound = "Cc1c(C(=O)Nc2nnco2)ccc(C(F)(F)F)c1[S+](C)[O-] (stereo in doubt) [Example I-3]"
units_symbol = "%"
observed_measurement = 70

[[record]]
compound = "Cc1c(C(=O)Nc2nnco2)ccc(C(F)(F)F)c1[S+](C)[O-] (racemic) [1-144 from WO2012126932, reference compound]"
units_symbol = "%"
observed_measurement = 100


----------
# Test system: SETVI
# protocol text: Pre-emergence herbicidal action
# Format: in vivo, Setaria viridis
# experimental parameters: 80 g/ha, scored after 3 weeks
Pre-emergence action against SETVI: recorded values
measured property: Pre-emergence action against SETVI (%)

[[record]]
compound = "C[S+]([O-])c1c(C(F)F)ccc(C(=O)Nc2nnco2)c1Cl (stereo in doubt) [Example I-2]"
measured_property = "Pre-emergence action against SETVI"
observed_measurement = 100

[[record]]
compound = "C[S+]([O-])c1c(C(F)(F)F)ccc(C(=O)Nc2nnco2)c1Cl (stereo in doubt) [Example I-1]"
measured_property = "Pre-emergence action against SETVI"
observed_measurement = 100

[[record]]
compound = "Cc1c(C(=O)Nc2nnco2)ccc(C(F)(F)F)c1[S+](C)[O-] (stereo in doubt) [Example I-3]"
measured_property = "Pre-emergence action against SETVI"
observed_measurement = 90

[[record]]
compound = "Cc1nnc(NC(=O)c2ccc(C(F)(F)F)c([S+]([O-])C3CC3)c2Cl)o1 (stereo in doubt) [Example I-4]"
measured_property = "Pre-emergence action against SETVI"
observed_measurement = 100

[[record]]
compound = "Cc1nnc(NC(=O)c2ccc(C(F)(F)F)c([S+](C)[O-])c2Cl)o1 (stereo in doubt) [Example I-5]"
measured_property = "Pre-emergence action against SETVI"
observed_measurement = 100

[[record]]
compound = "Cc1nnc(NC(=O)c2ccc(C(F)F)c([S+](C)[O-])c2Cl)o1 (stereo in doubt) [Example I-6]"
measured_property = "Pre-emergence action against SETVI"
observed_measurement = 100

